tested on: IGROV-1; assay: Growth inhibition of human IGROV1 cells after 48 hrs by sulforhodamine B assay; assay type: functional; conditions: IGROV-1, 48 h
Listing of entries alongside the reported GI50.
Quantity Name: GI50

INSERT INTO results (compound, result) VALUES
  ('C=C1c2c(C)nn(-c3ccccc3)c2N(C)C23CC1C1(C)c4c(C)nn(-c5ccccc5)c4N(C)C(C)(CC12)C3 (centres undefined)', '11.9 µM'),
  ('C=C1c2c(C)nn(-c3ccc(OC)cc3)c2N(C)C23CC1C1(C)c4c(C)nn(-c5ccc(OC)cc5)c4N(C)C(C)(CC12)C3 (centres undefined)', '7.54 µM'),
  ('Cc1nn(-c2ccccc2)c2c1C(C)C1CC3(CC4(C)CC3C1(C)c1c(C)nn(-c3ccccc3)c1N4C)N2C (centres undefined)', '> 100 µM'),
  ('COc1ccc(-n2nc(C)c3c2N(C)C2(C)CC4C3(C)C3CC4(C2)N(C)c2c(c(C)nn2-c2ccc(OC)cc2)C3C)cc1 (centres undefined)', '19.5 µM');

The values you see were collected from ChEMBL document CHEMBL3102801.
